# Protocol description: gradient 5% acetonitrile 3 min, to 50% in 2 min, to 85% in 15 min, held 3 min, 100 µL/min
# Experimental context: column: Zorbax Extend-C18 2.1 x 50 mm; eluents: water / acetonitrile, 0.1% formic acid
Quantity: RP-LC retention time
Note to self: number, then unit, no commentary.

>>> df
                                   molecule  endpoint_result
0           CN(C)C(=O)c1nc2ccccn2c1-c1ccsc1            595 s
1  CC1CCN(S(=O)(=O)c2ccc3c(c2)CCCC(=O)N3CC(=O)NC2CCCC2)CC1            874 s
2  CCSc1nnc(NC(=O)CN(C)c2nc3c(Cl)cccc3s2)s1            904 s
3  COc1ccc(-c2nc3cccnc3n2C2CCN(S(=O)(=O)Cc3ccccc3)C2)cc1 (configuration not stated)            874 s
4               CNC(=O)c1cc(C(C)(C)C)[nH]n1            618 s

Summary for this molecule, "Cc1cc(NC(=O)C2CCN(C(=O)CSc3nnnn3C)CC2)no1" : RP-LC retention time is 607 s

Memo: "CC(C)c1nc(-n2cccc2)sc1C(=O)NCCc1ccc(S(N)(=O)=O)cc1" , reported RP-LC retention time: 924 s
